Molecular target: T1, Anti-CD28 Fab (SEQ ID NOs: 696, 697)
T1 construct: In the phage ELISA the Fab was biotinylated and captured on neutravidin coated plates
T1 sequence (VH, as listed by the source, chain 1 of 2): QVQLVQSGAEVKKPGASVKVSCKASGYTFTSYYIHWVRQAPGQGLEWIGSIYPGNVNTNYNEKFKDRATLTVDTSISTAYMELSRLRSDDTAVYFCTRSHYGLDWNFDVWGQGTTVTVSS
T1 sequence (VL, as listed by the source, chain 2 of 2): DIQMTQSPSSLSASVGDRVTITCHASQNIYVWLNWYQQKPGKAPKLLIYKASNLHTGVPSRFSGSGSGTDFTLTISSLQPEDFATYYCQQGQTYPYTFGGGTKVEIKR
Assay: phage ELISA; biotinylated anti-CD28 Fab on neutravidin plate, bound phage detected with anti-M13-HRP
Where no end group is shown, it is not given here.
The entries below come with measured Anti-CD28 Fab signal (phage binding ELISA) values attached.
Hey, just send me the number, nothing else.

Solved cases below.
INSERT INTO measurements (binder, reported) VALUES
  ('YCEGHSVQYMQKCL (not shown: pIII filament protein of the bacteriophage to which the peptide is fused) [Phage-879]', 1.71),
  ('YCDGHSREYMVKCL (cysteine pairing not given here; also: fused to phage pIII, not shown: pIII filament protein of the bacteriophage to which the peptide is fused) [Phage-881]', 1.71),
  ('YCAGHTQEYMYKCL (cysteine pairing not given here; also: fused to phage pIII, not shown: pIII filament protein of the bacteriophage to which the peptide is fused) [Phage-888]', 1.7);

Which measured Anti-CD28 Fab signal (phage binding ELISA) value corresponds to YCAGHSMEYMAKCL (cysteine pairing not given here; also: fused to phage pIII, not shown: pIII filament protein of the bacteriophage to which the peptide is fused) [Phage-885] ?
1.71

Which Anti-CD28 Fab signal (phage binding ELISA) value is on record for YCEGHAQEYMSKCL (cysteine pairing not given here; also: fused to phage pIII, not shown: pIII filament protein of the bacteriophage to which the peptide is fused) [Phage-889] ?
1.7

Recorded Anti-CD28 Fab signal (phage binding ELISA) for YCDGHSWEYMEKCL (cysteine pairing not given here; also: fused to phage pIII, not shown: pIII filament protein of the bacteriophage to which the peptide is fused) [Phage-891] , please?
1.7

Need Anti-CD28 Fab signal (phage binding ELISA), item YCDGHLVEYRGKCL (cysteine pairing not given here; also: fused to phage pIII, not shown: pIII filament protein of the bacteriophage to which the peptide is fused) [Phage-882]
1.71

Requested read-out: Anti-CD28 Fab signal (phage binding ELISA). Entry: YCDGHLQIYMHKCL (cysteine pairing not given here; also: fused to phage pIII, not shown: pIII filament protein of the bacteriophage to which the peptide is fused) [Phage-884]
1.71
